# target-of-assay: PDE4B2 (Homo sapiens)
# Construct: expressed in transfected cells; host or cells: Flp-In-293 (Flpin-293-PDE4B2 [sic])
# Sequence (Q07343 1-564 isoform Q07343-2): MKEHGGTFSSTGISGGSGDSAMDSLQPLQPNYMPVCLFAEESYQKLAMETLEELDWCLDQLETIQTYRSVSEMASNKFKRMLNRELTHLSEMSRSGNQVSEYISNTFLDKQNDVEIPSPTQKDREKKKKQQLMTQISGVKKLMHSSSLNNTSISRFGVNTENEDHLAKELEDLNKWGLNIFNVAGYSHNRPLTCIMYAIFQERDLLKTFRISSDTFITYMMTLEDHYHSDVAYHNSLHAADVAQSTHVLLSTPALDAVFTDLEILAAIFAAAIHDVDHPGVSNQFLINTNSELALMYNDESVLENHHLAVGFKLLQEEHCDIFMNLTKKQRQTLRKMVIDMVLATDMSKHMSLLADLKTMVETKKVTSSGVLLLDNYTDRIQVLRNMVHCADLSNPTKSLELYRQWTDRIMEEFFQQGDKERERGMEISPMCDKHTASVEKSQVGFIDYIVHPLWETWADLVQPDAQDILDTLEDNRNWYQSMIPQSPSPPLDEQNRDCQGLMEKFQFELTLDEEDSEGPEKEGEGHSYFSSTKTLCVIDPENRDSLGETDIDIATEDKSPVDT
# assay-name: PDE4B2 cell experiment (cAMP, Eu-cAMP tracer / Ulight-anti-cAMP)
# Format: cell-based
# test-parameters: Flpin-293-PDE4B2 cells, 10 nM
# Cell Inhibition% @10 nM values compiled below
Write down the numeric answer in % and omit the unit.

As a guide, the following entries are already answered.
[O-][S+]1CCc2nc(N3CC[C@@H]4c5ccccc5OC[C@H]4C3)nc(NC3(CO)CCC3)c21 (stereo partly shown) | 47.82
O=[N+]([O-])c1ccc2c(c1)CN(c1nc3c(c(NC4(CO)CCC4)n1)[S+]([O-])CC3)C2 (stereo not shown) | 17.7
[O-][S+]1CCc2nc(N3CCc4cc(-n5ccnc5)ccc4C3)nc(NC3(CO)CCC3)c21 (stereo not shown) | 65.79
[O-][S+]1CCc2nc(N3CCc4cc(Cl)ncc4C3)nc(NC3(CO)CCC3)c21 (stereo not shown) | 32.09
O=C(O)Cc1ccc(Nc2nc(N3CCc4cc(Cl)ccc4C3)nc3c2[S@+]([O-])CC3)cc1 | 39.59
[O-][S+]1CCc2nc(N3CCc4ccc(Cl)cc4CC3)nc(NC3(CO)CCC3)c21 (stereo not shown) | 14

As a next step, examine the compound that follows.
State, in one line, measured Cell Inhibition% @10 nM of [O-][S+]1CCc2nc(N3CC[C@@H]4c5cc(Cl)ccc5OC[C@H]4C3)nc(NC3(CO)CCC3)c21 (stereo partly shown) 37.35
